- target-or-system: T1, mouse programmed cell death protein 1 Fc fusion protein (mPD-1-Fc), mPD-1 C60S (aa 25-167) (Mus musculus, UniProt Q02242, stabilised)
- T1 construct: not cleaved; source: Expi293F, purified (Protein A, SEC; dimeric fraction); not shown: Fc (human), C-terminal, kept
- run-description: SPR; Carterra LSA; Fab from the ammonium sulfate precipitate of the culture supernatant immobilised on a NiHC200M chip; hPD-1 (1-1024 nM) or mPD-1-Fc (4-1024 nM) as analyte, fourfold dilution series, no regeneration; HBS-EP pH 7.4, 25 °C; medians over the spots of a construct, KD = koff/kon
- settings: one partner purified
Record form. Attribute: koff. Fill in for each entry.
Quick reminder: number only, in s⁻¹, skip the unit.

Requested read-out: koff. Entry: toripalimab Fab L.S97A (Fab, V domains shown, as the heavy chain of Sm3; light chain of Sm3 with this change; numbers count from the chain's first residue; source: Brevibacillus, culture supernatant (ammonium sulfate precipitate); not shown: 6xHis, C-terminal, kept; 6xHN, C-terminal, kept) VH: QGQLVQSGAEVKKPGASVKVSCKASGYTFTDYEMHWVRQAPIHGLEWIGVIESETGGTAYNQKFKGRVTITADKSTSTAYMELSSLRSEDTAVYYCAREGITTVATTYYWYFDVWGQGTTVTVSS VL: DVVMTQSPLSLPVTLGQPASISCRSSQSIVHSNGNTYLEWYLQKPGQSPQLLIYKVSNRFSGVPDRFSGSGSGTDFTLKISRVEAEDVGVYYCFQGAHVPLTFGQGTKLEIK
0.0274

Then what about the binder toripalimab Fab L.S28A (Fab, V domains shown, as the heavy chain of Sm3; light chain of Sm3 with this change; numbers count from the chain's first residue; source: Brevibacillus, culture supernatant (ammonium sulfate precipitate); not shown: 6xHis, C-terminal, kept; 6xHN, C-terminal, kept) VH: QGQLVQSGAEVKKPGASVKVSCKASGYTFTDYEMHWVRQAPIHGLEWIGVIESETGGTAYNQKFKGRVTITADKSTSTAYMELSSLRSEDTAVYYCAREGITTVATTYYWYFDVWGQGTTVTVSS VL: DVVMTQSPLSLPVTLGQPASISCRSSQAIVHSNGNTYLEWYLQKPGQSPQLLIYKVSNRFSGVPDRFSGSGSGTDFTLKISRVEAEDVGVYYCFQGSHVPLTFGQGTKLEIK ?
0.00303

Then what about the binder toripalimab Fab H.D31Y (Fab, V domains shown, heavy chain of Sm3 with this change; numbers count from the chain's first residue; as the light chain of Sm3; source: Brevibacillus, culture supernatant (ammonium sulfate precipitate); not shown: 6xHis, C-terminal, kept; 6xHN, C-terminal, kept) VH: QGQLVQSGAEVKKPGASVKVSCKASGYTFTYYEMHWVRQAPIHGLEWIGVIESETGGTAYNQKFKGRVTITADKSTSTAYMELSSLRSEDTAVYYCAREGITTVATTYYWYFDVWGQGTTVTVSS VL: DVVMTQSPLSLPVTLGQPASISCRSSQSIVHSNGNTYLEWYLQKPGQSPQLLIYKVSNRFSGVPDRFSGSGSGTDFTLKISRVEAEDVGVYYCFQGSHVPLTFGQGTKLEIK ?
0.0133

Then what about the binder toripalimab Fab L.T36Y (Fab, V domains shown, as the heavy chain of Sm3; light chain of Sm3 with this change; numbers count from the chain's first residue; source: Brevibacillus, culture supernatant (ammonium sulfate precipitate); not shown: 6xHis, C-terminal, kept; 6xHN, C-terminal, kept) VH: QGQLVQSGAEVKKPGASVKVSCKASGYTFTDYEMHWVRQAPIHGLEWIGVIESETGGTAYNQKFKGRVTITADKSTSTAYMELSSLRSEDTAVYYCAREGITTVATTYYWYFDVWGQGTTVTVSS VL: DVVMTQSPLSLPVTLGQPASISCRSSQSIVHSNGNYYLEWYLQKPGQSPQLLIYKVSNRFSGVPDRFSGSGSGTDFTLKISRVEAEDVGVYYCFQGSHVPLTFGQGTKLEIK ?
0.00757

Then what about the binder toripalimab Fab H.G66A (Fab, V domains shown, heavy chain of Sm3 with this change; numbers count from the chain's first residue; as the light chain of Sm3; source: Brevibacillus, culture supernatant (ammonium sulfate precipitate); not shown: 6xHis, C-terminal, kept; 6xHN, C-terminal, kept) VH: QGQLVQSGAEVKKPGASVKVSCKASGYTFTDYEMHWVRQAPIHGLEWIGVIESETGGTAYNQKFKARVTITADKSTSTAYMELSSLRSEDTAVYYCAREGITTVATTYYWYFDVWGQGTTVTVSS VL: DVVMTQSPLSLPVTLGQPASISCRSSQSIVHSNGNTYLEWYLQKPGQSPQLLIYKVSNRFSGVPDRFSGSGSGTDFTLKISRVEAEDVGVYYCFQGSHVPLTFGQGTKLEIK ?
0.00674
